Just for reference, ChEMBL document CHEMBL4609986 is where these values come from.

# Test system: HEK-293T
# PROCEDURE_SUMMARY: Cytotoxicity against human HEK293T cells transfected with DYRK1A co-tranfected with Renilla plasmid, pGL3-NFAT and NFATc1 assessed as reduction in luciferase activity by measuring cell number
# Assay type: cell-based
# STATED_CONDITIONS: hek-293t
REPORTED_PROPERTY: CC50

CCCCNC(=O)c1cnc2ccc(-c3cc(Cl)c(O)c(Cl)c3)nc2c1N[C@H]1CC[C@H](C(N)=O)CC1; 6.85 µM
CCOC(=O)c1cnc2ccc(-c3cc(C)c(O)c(C)c3)nc2c1N[C@H]1CC[C@H](CN(C)C)CC1; > 10 µM
CCOC(=O)c1cnc2ccc(-c3cc(Cl)c(O)c(Cl)c3)nc2c1N[C@H]1CC[C@H](CN)CC1; 0.165 µM

Now look at this entry.
Q) Could you tell me which CC50 is on file for CN(C)C[C@H]1CC[C@H](Nc2c(C(=O)N3CCOCC3)cnc3ccc(-c4cc(Cl)c(O)c(Cl)c4)nc23)CC1 ?
A) > 10 µM
